System: 855422-203-R-J1-PDC complex spheroid viability;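 further: spheroids exposed to compounds for seven days before readout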
Assay: Anticancer human tumor 855422-203-R-J1-PDC patient-derived bladder carcinoma cell line growth inhibition [POLQ]
Settings: second compound 1 µM; first compound 0.0316 µM; stronger effect = lower value
quantity: viability, T/C (%)
Report only the number, with the unit % understood.

Asked: Form entry - test system: 855422-203-R-J1-PDC complex spheroid viability; read-out: viability, T/C; compound: O=C(c1cc(Cc2n[nH]c(=O)c3ccccc23)ccc1F)N1CCN(C(=O)C2CC2)CC1 + Nc1ccc(C#CCN(C(=O)Cc2ncc(C(F)(F)F)cc2C(F)(F)F)c2ccc(F)cc2)nn1;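 further: spheroids exposed to compounds for seven days before readout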
Given back: 98.7

Asked: Form entry - test system: 855422-203-R-J1-PDC complex spheroid viability; read-out: viability, T/C; compound: C=CCn1c(=O)c2cnc(Nc3ccc(N4CCN(C)CC4)cc3)nc2n1-c1cccc(C(C)(C)O)n1 + Nc1ccc(C#CCN(C(=O)Cc2ncc(C(F)(F)F)cc2C(F)(F)F)c2ccc(F)cc2)nn1;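 further: spheroids exposed to compounds for seven days before readout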
Given back: 103

Asked: Form entry - test system: 855422-203-R-J1-PDC complex spheroid viability; read-out: viability, T/C; compound: C#Cc1c(F)ccc2cc(O)cc(-c3ncc4c(N5CC6CCC(C5)N6)nc(OCC56CCCN5CC(F)C6)nc4c3F)c12 (stereo not drawn) + Nc1ccc(C#CCN(C(=O)Cc2ncc(C(F)(F)F)cc2C(F)(F)F)c2ccc(F)cc2)nn1;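 further: spheroids exposed to compounds for seven days before readout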
Given back: 107
